- systemName: Neuropeptide Y receptor type 2 (Homo sapiens, UniProt P49146)
- Sequence (P49146 whole entry): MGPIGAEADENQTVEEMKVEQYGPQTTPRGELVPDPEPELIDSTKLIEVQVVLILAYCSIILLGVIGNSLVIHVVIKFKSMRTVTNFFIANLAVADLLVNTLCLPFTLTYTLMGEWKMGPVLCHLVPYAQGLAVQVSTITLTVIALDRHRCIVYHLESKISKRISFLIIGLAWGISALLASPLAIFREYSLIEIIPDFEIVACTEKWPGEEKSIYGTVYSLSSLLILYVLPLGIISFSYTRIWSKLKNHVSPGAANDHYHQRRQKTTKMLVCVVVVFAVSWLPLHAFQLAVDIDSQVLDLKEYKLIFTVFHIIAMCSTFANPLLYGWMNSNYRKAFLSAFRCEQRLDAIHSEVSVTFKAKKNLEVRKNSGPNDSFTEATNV
- assayText: Agonist activity at human NPY2 receptor expressed in human KAN-TS cells by [35S]GTP-gamma-S incorporation assay
- Assay type: functional, cell-based
readoutLabel: pEC50
Give bare numbers, as −log10 of the molar value.

(Q) If you can, please state the reported pEC50 value of Ac-HYLNLVTRQRY-NH2 .
(A) 6.37

* * *

- systemName: Neuropeptide Y receptor type 1 (Homo sapiens)
- Sequence (P25929 whole entry): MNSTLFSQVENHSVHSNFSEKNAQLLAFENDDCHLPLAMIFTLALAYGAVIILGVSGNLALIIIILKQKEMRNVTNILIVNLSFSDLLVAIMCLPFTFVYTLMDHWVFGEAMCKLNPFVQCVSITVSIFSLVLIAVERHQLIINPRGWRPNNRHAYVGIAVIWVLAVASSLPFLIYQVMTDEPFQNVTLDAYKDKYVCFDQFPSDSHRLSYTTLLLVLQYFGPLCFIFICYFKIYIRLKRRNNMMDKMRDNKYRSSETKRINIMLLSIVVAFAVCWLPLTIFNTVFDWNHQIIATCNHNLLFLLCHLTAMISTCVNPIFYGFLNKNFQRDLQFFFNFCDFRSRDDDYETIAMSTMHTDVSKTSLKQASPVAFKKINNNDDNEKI
- assayText: Displacement of [125I]PYY from NPY1 receptor expressed in human SK-N-MC cells
- Assay type: cell-based
pKi: −log10 of the molar value.
readoutLabel: pKi

(Q) If you can, please state the reported pKi value of Ac-HYLNLVTRQRY-NH2 .
(A) < 6.00
